Data provenance is paper PMC9482650.

Target: DLG5_2, Q8TDM6
Sequence (Q8TDM6 714-800): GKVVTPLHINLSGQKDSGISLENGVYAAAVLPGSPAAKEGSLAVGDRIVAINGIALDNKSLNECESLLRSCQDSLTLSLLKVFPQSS
Experiment: holdup assay
Parameters: key: below the threshold = too weak to quantify, mostly under pKd 3.1 to 4
Conditions: plain residues with an end cap or a label only (N-terminal biotin on a linker: ttds)
MEASURED METRIC: pKd

{"columns": ["BINDER", "pKd"],
 "data": [
  ["RSLEEEESQL [GRASP, Q7Z6J2]", "below the threshold"],
  ["SSRTRRETQL [HPV16-E6, P03126]", 4.12],
  ["PKTPPTDTSV [KIR3DL3, Q8N743]", "below the threshold"],
  ["SVWLRKETRV [CYSLTR2, Q9NS75]", 4.71],
  ["SRPQRTQTQV [HPV67-E6, A4U7F2]", 4.16]
]}

Give measured pKd for every item shown.
1. QSARYRDTEL [TJP2, Q9UDY2]
2. STLTIFETAL [ABCC4, O15439]

Found:
below the threshold
below the threshold
